Test system: 883617-216-R-J1-PDC complex spheroid viability
Assay Overview: Anticancer human tumor 883617-216-R-J1-PDC patient-derived bladder carcinoma cell line growth inhibition [POLQ]
Details: second compound 0.316 µM; first compound 10 µM; hits give low values
Metric Name: viability, T/C (%)
Give the number; % is assumed, so skip it.

Reference set, count: 2
>>> observed_value("O=C(Nc1ccc(O)c(NS(=O)(=O)c2ccc(F)cc2)c1)c1ccc(-c2ccccc2)cc1 + Nc1ccc(C#CCN(C(=O)Cc2ncc(C(F)(F)F)cc2C(F)(F)F)c2ccc(F)cc2)nn1")
72.5
>>> observed_value("O=C(c1cc(Cc2n[nH]c(=O)c3ccccc23)ccc1F)N1CCN(C(=O)C2CC2)CC1 + COC1C(OC(N)=O)C(O)C(Oc2ccc3c(O)c(NC(=O)c4ccc(O)c(CC=C(C)C)c4)c(=O)oc3c2C)OC1(C)C")
70.3

Prompt line: Look up viability, T/C: COc1cccc2c1C(=O)c1c(O)c3c(c(O)c1C2=O)CC(O)(C(=O)CO)CC3OC1CC(N)C(O)C(C)O1 (stereo not drawn) + COC1C(OC(N)=O)C(O)C(Oc2ccc3c(O)c(NC(=O)c4ccc(O)c(CC=C(C)C)c4)c(=O)oc3c2C)OC1(C)C
Response line: 1.91

###

Test system: 883617-216-R-J1-PDC complex spheroid viability
Assay Overview: Anticancer human tumor 883617-216-R-J1-PDC cell line growth inhibition [POLQ]; active means viability on the fitted dose curve at most 10% of control; inactive means the rest;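 further: spheroids exposed to compounds for seven days before readout; 100% = DMSO vehicle control viability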
Details: second compound 1 µM; first compound 3.16 µM
Choose one outcome from this list and give only that: active, inactive

Consider the following illustrative entries.
>>> assigned_label("CC1COCCN1c1cc(C2(O)CC3CCC(C2)O3)c2cnn(-c3ccn[nH]3)c2n1 (stereo unspecified) + COC1C(OC(N)=O)C(O)C(Oc2ccc3c(O)c(NC(=O)c4ccc(O)c(CC=C(C)C)c4)c(=O)oc3c2C)OC1(C)C")
"inactive"
>>> assigned_label("CC1COCCN1c1cc(C2(S(C)(=N)=O)CC2)nc(-c2ccnc3[nH]ccc23)n1 (stereo unspecified) + COC1C(OC(N)=O)C(O)C(Oc2ccc3c(O)c(NC(=O)c4ccc(O)c(CC=C(C)C)c4)c(=O)oc3c2C)OC1(C)C")
"inactive"
>>> assigned_label("Nc1ccn(C2OC(CO)C(O)C2(F)F)c(=O)n1 (stereo unspecified) + Nc1ccc(C#CCN(C(=O)Cc2ncc(C(F)(F)F)cc2C(F)(F)F)c2ccc(F)cc2)nn1")
"inactive"
>>> assigned_label("CC1COCCN1c1cc(-c2ccnn2C)c2ccnc(-c3ccn[nH]3)c2n1 (stereo unspecified) + Cc1cccc(N(C)C(=O)C2C(O)CCN2c2nc(C)cc(C(F)(F)F)c2C#N)c1")
"inactive"
>>> assigned_label("CC1COCCN1c1cc(C2(O)CC3CCC(C2)O3)c2cnn(-c3ccn[nH]3)c2n1 (stereo unspecified) + Nc1ccc(C#CCN(C(=O)Cc2ncc(C(F)(F)F)cc2C(F)(F)F)c2ccc(F)cc2)nn1")
"inactive"
>>> assigned_label("CNCc1ccc(-c2[nH]c3cc(F)cc4c3c2CCNC4=O)cc1 + Nc1ccc(C#CCN(C(=O)Cc2ncc(C(F)(F)F)cc2C(F)(F)F)c2ccc(F)cc2)nn1")
"inactive"
>>> assigned_label("CCc1cc2c(N3CCc4c(cc(Cn5ccnc5)cc4-c4cn(C)nc4C(F)(F)F)C3=O)cc(C)nc2c(OC)n1 + Nc1ccc(C#CCN(C(=O)Cc2ncc(C(F)(F)F)cc2C(F)(F)F)c2ccc(F)cc2)nn1")
"inactive"
>>> assigned_label("COc1cc(C2c3cc4c(cc3C(OC3OC5COC(C)OC5C(O)C3O)C3COC(=O)C23)OCO4)cc(OC)c1O (stereo unspecified) + Nc1ccc(C#CCN(C(=O)Cc2ncc(C(F)(F)F)cc2C(F)(F)F)c2ccc(F)cc2)nn1")
"inactive"
>>> assigned_label("COc1ccc([C@@H](O)c2cc(-c3ncnc4cc(N5CCOCC5)ccc34)c(F)cc2Cl)nn1 + COC1C(OC(N)=O)C(O)C(Oc2ccc3c(O)c(NC(=O)c4ccc(O)c(CC=C(C)C)c4)c(=O)oc3c2C)OC1(C)C")
"inactive"
>>> assigned_label("Nc1ccn(C2OC(CO)C(O)C2(F)F)c(=O)n1 (stereo unspecified) + Cc1cccc(N(C)C(=O)C2C(O)CCN2c2nc(C)cc(C(F)(F)F)c2C#N)c1")
"inactive"

Prompt line: # outcome recorded in this test, key = COc1cccc2c1C(=O)c1c(O)c3c(c(O)c1C2=O)CC(O)(C(=O)CO)CC3OC1CC(N)C(O)C(C)O1 (stereo unspecified) + Cc1cccc(N(C)C(=O)C2C(O)CCN2c2nc(C)cc(C(F)(F)F)c2C#N)c1
Response line: active

Source of measurements: PubChem BioAssay AID1963833
